# TARGET_OF_ASSAY: NEK6 (human) (UniProt Q9HC98)
# Sequence (Q9HC98 whole entry, looked up): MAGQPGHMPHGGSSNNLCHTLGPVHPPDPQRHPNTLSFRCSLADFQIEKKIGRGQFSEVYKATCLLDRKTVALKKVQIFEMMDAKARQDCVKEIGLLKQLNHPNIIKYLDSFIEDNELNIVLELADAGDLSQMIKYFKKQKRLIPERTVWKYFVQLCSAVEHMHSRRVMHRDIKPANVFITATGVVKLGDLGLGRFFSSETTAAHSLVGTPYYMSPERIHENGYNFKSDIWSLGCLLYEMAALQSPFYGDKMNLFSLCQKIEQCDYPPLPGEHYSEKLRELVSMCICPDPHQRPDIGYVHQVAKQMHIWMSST
# ASSAY_NAME: radiometric filter-binding kinase assay
# CONDITION_CONTEXT: compound 1.0 µM
condition met if residual activity is below 90%. condition not met if not; exact matches included in condition not met.

>>> class_assignment("COc1cc(O)c2c(c1)/C=C/C[C@H](O)[C@H](O)C(=O)/C=C\\C[C@H](C)OC2=O")
"condition not met"
>>> class_assignment("Cc1ccc(=O)n(-c2ccccc2)c1")
"condition not met"
>>> class_assignment("c1ccc2c(-c3cnn4cc(-c5ccc(N6CCNCC6)cc5)cnc34)ccnc2c1")
"condition met"
>>> class_assignment("Cc1cc(NC(=O)c2cccc(NC(=O)/C=C/CN(C)C)c2)ccc1Nc1nccc(-c2cccnc2)n1")
"condition met"
>>> class_assignment("O=C(NOC[C@H](O)CO)c1ccc(F)c(F)c1Nc1ccc(I)cc1Cl")
"condition not met"
>>> class_assignment("Cc1ccc(Sc2cnc(Nc3cccc(Br)n3)s2)cc1C(=O)N1CCN(C(=O)CN)CC1")
"condition not met"
>>> class_assignment("Cc1nc(-c2ccc(OCC(C)C)c(C#N)c2)sc1C(=O)O")
"condition not met"

###

# Lookup of reported residual activity keyed by entry
# TARGET_OF_ASSAY: MAPKAPK3 (human)
# ASSAY_NAME: radiometric filter-binding kinase assay
# CONDITION_CONTEXT: compound 0.1 µM
QUANTITY: residual activity

>>> value("NC(=O)c1cc(-c2ccnc(NC3CCCCC3)c2)nc(N2CCNCC2)c1")
"92%"
>>> value("CN(C)C/C=C/C(=O)Nc1cccc(C(=O)Nc2ccc(Nc3nccc(-c4cccnc4)n3)cc2)c1")
"104%"
>>> value("Cc1ccc(-c2ccc3c(ccc4sc5c(c43)NC[C@@H](C)NC5=O)n2)cn1")
"114%"
>>> value("CCn1c(-c2nonc2N)nc2cncc(CNC3CCNCC3)c21")
"98%"
>>> value("O=C(NCCCNc1nc(Nc2cccc(CN3CCOCC3)c2)ncc1C1CC1)C1CCC1")
"80%"
>>> value("c1ccc2c(-c3cnn4cc(-c5ccc(N6CCNCC6)cc5)cnc34)ccnc2c1")
"80%"
>>> value("CNC(=O)C1[C@H]2O[C@@](C)([C@@H]1N)n1c3ccccc3c3c4c(c5c6ccccc6n2c5c31)C(=O)NC4 (some centres not stated)")
"74%"
>>> value("CCCCCc1ccc(/C=C/[C@H](O)[C@@H](CO)NC)cc1")
"115%"
>>> value("Cc1ccc(Sc2cnc(Nc3cccc(Br)n3)s2)cc1C(=O)N1CCN(C(=O)CN)CC1")
"91%"
>>> value("O=C(O)c1ccc(-c2c[nH]c3ncc(-c4ccccc4)cc23)cc1C1CCCC1")
"101%"
>>> value("COc1ccc(N(C(=O)Nc2c(C)cccc2C)c2cc(Nc3ccc(N4CCN(C)CC4)cc3)ncn2)c(OC)c1")
"90%"
>>> value("CN1CCN(CCOc2cc(OC3CCOCC3)c3c(Nc4c(Cl)ccc5c4OCO5)ncnc3c2)CC1")
"92%"

###

# TARGET_OF_ASSAY: PIM1 (human) (UniProt P11309)
# Sequence (P11309 whole entry, looked up): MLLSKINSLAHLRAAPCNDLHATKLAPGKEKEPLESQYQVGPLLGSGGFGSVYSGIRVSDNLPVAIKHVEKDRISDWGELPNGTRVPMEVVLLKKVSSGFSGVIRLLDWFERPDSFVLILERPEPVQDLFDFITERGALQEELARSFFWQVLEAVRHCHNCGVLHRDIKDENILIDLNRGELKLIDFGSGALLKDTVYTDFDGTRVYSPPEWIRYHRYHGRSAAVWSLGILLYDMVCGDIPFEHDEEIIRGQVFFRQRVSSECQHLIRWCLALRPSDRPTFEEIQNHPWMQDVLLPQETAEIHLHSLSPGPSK
# ASSAY_NAME: radiometric filter-binding kinase assay
# CONDITION_CONTEXT: compound 1.0 µM
Decide using residual activity alone. Strictly below 90%: class 1. Equal to or above 90%: class 0.

>>> class_assignment("COc1cc2ncn(-c3cc(OCc4ccccc4S(C)(=O)=O)c(C#N)s3)c2cc1OC")
"class 0"
>>> class_assignment("CN(C)C/C=C/C(=O)Nc1cccc(C(=O)Nc2ccc(Nc3nccc(-c4cccnc4)n3)cc2)c1")
"class 0"
>>> class_assignment("Nc1cccc2c1CN(C1CCC(=O)NC1=O)C2=O (configuration not stated)")
"class 0"
>>> class_assignment("Cc1cc(SCc2sc(-c3ccc(C(F)(F)F)cc3)nc2C)ccc1OCC(=O)O")
"class 1"
>>> class_assignment("Cc1cccc(-c2nn(C(=S)Nc3ccccc3)cc2-c2ccnc3ccccc23)n1")
"class 0"
>>> class_assignment("C[C@H]1CCCC(=O)CCC/C=C/c2cc(O)cc(O)c2C(=O)O1")
"class 1"
>>> class_assignment("COc1cc(O)c2c(c1)/C=C/C[C@H](O)[C@H](O)C(=O)/C=C\\C[C@H](C)OC2=O")
"class 1"
>>> class_assignment("CC(C)(C#N)c1ccc(N2C(=O)OCc3cnc4ccc(-c5cnc6ccccc6c5)cc4c32)cc1")
"class 1"
>>> class_assignment("CN1C(=O)[C@@H](Cc2c[nH]c3ccccc23)NC1=S")
"class 1"
>>> class_assignment("Cc1ccc(=O)n(-c2ccccc2)c1")
"class 0"
>>> class_assignment("O=c1c(O)c(-c2ccc(O)c(O)c2)oc2cc(O)c(O)c(O)c12")
"class 1"
